- tested-on: T1, PUF4 RNA-binding domain (Saccharomyces cerevisiae, UniProt P25339 537-888)
- T1 sequence: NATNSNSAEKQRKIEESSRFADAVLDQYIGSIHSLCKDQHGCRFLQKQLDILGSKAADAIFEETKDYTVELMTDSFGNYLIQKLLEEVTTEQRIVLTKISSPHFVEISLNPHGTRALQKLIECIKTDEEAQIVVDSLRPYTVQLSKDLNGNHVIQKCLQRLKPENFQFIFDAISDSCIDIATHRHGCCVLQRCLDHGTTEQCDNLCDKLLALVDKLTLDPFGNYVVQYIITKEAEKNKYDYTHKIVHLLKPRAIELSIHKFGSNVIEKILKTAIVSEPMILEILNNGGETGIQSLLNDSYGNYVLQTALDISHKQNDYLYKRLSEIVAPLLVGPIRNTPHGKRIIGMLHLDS
- protocol-notes: Mg; RNA-MaP; 20 mM Na-HEPES pH 7.4, 30 mM KOAc, 0.75 mM MgCl2, 0.1% Tween-20, 5% glycerol, 0.1 mg/mL BSA, 2 mM DTT; 25 C; 0.0125-409.6 nM protein
- condition-description: tags: N-His6-TEV cleaved; C-SNAP kept, Cy3B-labelled; label: tethered on chip by stalled RNA polymerase
This section presents binders with their documented pKd values.
Hey, just a heads up that pKd is the negative log base 10 of the concentration in molar.

>>> reported_result("ACAAACUGUCCCUAUAUUAACAAAC (ssRNA) [Ie_S3_P4E.1_K4.1_C4.1_H4.1_[+3CCCT]_A4.1_F4.1_T4.1]")
6.22
>>> reported_result("UCUCUUUGUAUGGCUCUCUU (ssRNA) [Ic_S1_P3E.1_K3.1_C3.1_H3.1_A3.1_[A6G]_F3.1_[T7G]_[A8C]_T3.1]")
5.76
>>> reported_result("Ib_S4_P4E.1_K4.1_C4.1_H4.1_[T3C]_A4.1_[T7G]_F4.1_T4.1 (ssRNA) RNA: UUUGACAACUGAUCGUUCUUUCUUGCAUAGUAUUCUUUCUCGAUCAGUUGUCUUU")
6.36
>>> reported_result("UCUCUUUGUAACUCCAUCUCUU (ssRNA) [Ic_S1_P5E.1_K5.1_C5.1_H5.1_A5.1_[T5A]_[T6C]_[A7T]_F5.1_[T8C]_[T9C]_T5.1]")
6.21
>>> reported_result("UCUCUUUGUAUUAUAAUCUCUU (ssRNA) [Ia_S1_P5E.1_K5.1_C5.1_H5.1_A5.1_F5.1_[T9A]_T5.1]")
8.63

Bench note: what pKd did Ie_S2_P3E.2_K3.1_C3.2_[+-2CCTCT]_H3.1_A3.1_F3.1_T3.2 (ssRNA) RNA: UUUGAUUAAUAUGAUAUCGUUCUUUCUCCCUCUUUGUAUAUAUAUUCUUUCUCGAUAUCAUAUUAAUCUUU show?
8.98

Given the entry ACAAACACUACACUAUAUAACAAAC (ssRNA) [Id_iii_S3_P3E.7_K3.3_C3.3_[T-3A]_H3.3_A3.1_F3.1_T3.2] , report its measured pKd.
6.12

Which pKd reading was recorded for the binder Ic_S4_P5E.1_K5.1_C5.1_H5.1_A5.1_[T5A]_F5.1_[T8A]_[T9C]_[A10T]_T5.1 (ssRNA) RNA: UUUGACAACUGAUCGUUCUUUCUUGUAAUAACUUUCUUUCUCGAUCAGUUGUCUUU ?
6.25

Find the recorded pKd belonging to UCUCUUUGUACUCCUCUCUU (ssRNA) [Ic_S1_P3E.1_K3.1_C3.1_H3.1_A3.1_[T5C]_[A6T]_F3.1_[T7C]_[A8C]_T3.1] and report it.
6.42

Can you share its pKd? I mean this binder: ACAAACCCUUAUAUAUAUAACAAAC (ssRNA) [Id_iii_S3_P3E.6_K3.2_C3.3_[T-3C]_H3.2_A3.1_F3.1_T3.2]
6.35

Cited source: paper PMC9352680
